Where do these numbers come from? They come from the supplement of paper PMC4862054.

- Test system: CAL-148
- protocol.summary: normalised viability (% of control), CellTiter-Blue; higher = more viable cells (about 100 = DMSO control)
- condition: 10 nM; incubation time: 72 h
reported.property: normalised viability (%)
Answers are plain numbers, in %.

Observe how each entry below is paired with its result.
compound="O=C(O)C(=O)O.[NH-][C@@H]1CCCC[C@H]1[NH-].[Pt+2] [Oxaliplatin]" unit_text=% recorded_measurement=127
compound="CC1=C(/C=C/C(C)=C/C=C/C(C)=C/C(=O)O)C(C)(C)CCC1 [Tretinoin]" unit_text=% recorded_measurement=92.1

// moving on: another record for normalised viability
Just so you know, measured normalised viability for Nc1nc(F)nc2c1ncn2[C@@H]1O[C@H](CO)[C@@H](O)[C@@H]1O [Fludarabine] came out at 90.9
